Numbers sourced from ChEMBL document CHEMBL5346910.

biological target: Genome polyprotein (dengue virus type 2) (UniProt P29990); assay: Inhibition of DENV-2 NS2B-NS3 protease at 50 uM by biochemical enzymatic assay relative to control
For each entry below, report its inhibition value.

inhibition in this record for CN([C@@H](Cc1ccc(C(=N)N)cc1)C(=O)N[C@@H](CCCCN)C(=O)N[C@@H](C(N)=O)c1ccccc1)S(=O)(=O)c1ccccc1 : 98.9%

inhibition in this record for N=C(N)NCCC[C@H](NS(=O)(=O)c1ccccc1)C(=O)N[C@@H](CCCCN)C(=O)N[C@@H](C(N)=O)c1ccccc1 : 44.3%

inhibition in this record for N=C(N)NCCC[C@H](NS(=O)(=O)c1ccc([N+](=O)[O-])cc1)C(=O)N[C@@H](CCCCN)C(=O)N[C@@H](C(N)=O)c1ccccc1 : 24.7%

inhibition in this record for CN([C@@H](Cc1cccc(NC(=N)N)c1)C(=O)N[C@@H](CCCCN)C(=O)N[C@@H](C(N)=O)c1ccccc1)S(=O)(=O)c1ccccc1 : 78.6%

inhibition in this record for CC[C@H](NC(=O)[C@H](Cc1cccc(NC(=N)N)c1)N(C)S(=O)(=O)c1ccc(C)cc1)C(=O)N[C@@H](C(N)=O)c1ccccc1 : 74.3%

inhibition in this record for N=C(N)NCCC[C@H](NS(=O)(=O)C1CCCCC1)C(=O)N[C@@H](CCCCN)C(=O)N[C@@H](C(N)=O)c1ccccc1 : 65.2%

inhibition in this record for CN([C@@H](Cc1cccc(N)c1)C(=O)N[C@@H](CCCCN)C(=O)N[C@@H](C(N)=O)c1ccccc1)S(=O)(=O)c1ccccc1 : 20.4%

###

biological target: Genome polyprotein (West Nile virus) (UniProt P06935); test: Inhibition of West Nile virus NS2B-NS3 protease at 50 uM by biochemical enzymatic assay relative to control
Sequence (P06935 whole entry): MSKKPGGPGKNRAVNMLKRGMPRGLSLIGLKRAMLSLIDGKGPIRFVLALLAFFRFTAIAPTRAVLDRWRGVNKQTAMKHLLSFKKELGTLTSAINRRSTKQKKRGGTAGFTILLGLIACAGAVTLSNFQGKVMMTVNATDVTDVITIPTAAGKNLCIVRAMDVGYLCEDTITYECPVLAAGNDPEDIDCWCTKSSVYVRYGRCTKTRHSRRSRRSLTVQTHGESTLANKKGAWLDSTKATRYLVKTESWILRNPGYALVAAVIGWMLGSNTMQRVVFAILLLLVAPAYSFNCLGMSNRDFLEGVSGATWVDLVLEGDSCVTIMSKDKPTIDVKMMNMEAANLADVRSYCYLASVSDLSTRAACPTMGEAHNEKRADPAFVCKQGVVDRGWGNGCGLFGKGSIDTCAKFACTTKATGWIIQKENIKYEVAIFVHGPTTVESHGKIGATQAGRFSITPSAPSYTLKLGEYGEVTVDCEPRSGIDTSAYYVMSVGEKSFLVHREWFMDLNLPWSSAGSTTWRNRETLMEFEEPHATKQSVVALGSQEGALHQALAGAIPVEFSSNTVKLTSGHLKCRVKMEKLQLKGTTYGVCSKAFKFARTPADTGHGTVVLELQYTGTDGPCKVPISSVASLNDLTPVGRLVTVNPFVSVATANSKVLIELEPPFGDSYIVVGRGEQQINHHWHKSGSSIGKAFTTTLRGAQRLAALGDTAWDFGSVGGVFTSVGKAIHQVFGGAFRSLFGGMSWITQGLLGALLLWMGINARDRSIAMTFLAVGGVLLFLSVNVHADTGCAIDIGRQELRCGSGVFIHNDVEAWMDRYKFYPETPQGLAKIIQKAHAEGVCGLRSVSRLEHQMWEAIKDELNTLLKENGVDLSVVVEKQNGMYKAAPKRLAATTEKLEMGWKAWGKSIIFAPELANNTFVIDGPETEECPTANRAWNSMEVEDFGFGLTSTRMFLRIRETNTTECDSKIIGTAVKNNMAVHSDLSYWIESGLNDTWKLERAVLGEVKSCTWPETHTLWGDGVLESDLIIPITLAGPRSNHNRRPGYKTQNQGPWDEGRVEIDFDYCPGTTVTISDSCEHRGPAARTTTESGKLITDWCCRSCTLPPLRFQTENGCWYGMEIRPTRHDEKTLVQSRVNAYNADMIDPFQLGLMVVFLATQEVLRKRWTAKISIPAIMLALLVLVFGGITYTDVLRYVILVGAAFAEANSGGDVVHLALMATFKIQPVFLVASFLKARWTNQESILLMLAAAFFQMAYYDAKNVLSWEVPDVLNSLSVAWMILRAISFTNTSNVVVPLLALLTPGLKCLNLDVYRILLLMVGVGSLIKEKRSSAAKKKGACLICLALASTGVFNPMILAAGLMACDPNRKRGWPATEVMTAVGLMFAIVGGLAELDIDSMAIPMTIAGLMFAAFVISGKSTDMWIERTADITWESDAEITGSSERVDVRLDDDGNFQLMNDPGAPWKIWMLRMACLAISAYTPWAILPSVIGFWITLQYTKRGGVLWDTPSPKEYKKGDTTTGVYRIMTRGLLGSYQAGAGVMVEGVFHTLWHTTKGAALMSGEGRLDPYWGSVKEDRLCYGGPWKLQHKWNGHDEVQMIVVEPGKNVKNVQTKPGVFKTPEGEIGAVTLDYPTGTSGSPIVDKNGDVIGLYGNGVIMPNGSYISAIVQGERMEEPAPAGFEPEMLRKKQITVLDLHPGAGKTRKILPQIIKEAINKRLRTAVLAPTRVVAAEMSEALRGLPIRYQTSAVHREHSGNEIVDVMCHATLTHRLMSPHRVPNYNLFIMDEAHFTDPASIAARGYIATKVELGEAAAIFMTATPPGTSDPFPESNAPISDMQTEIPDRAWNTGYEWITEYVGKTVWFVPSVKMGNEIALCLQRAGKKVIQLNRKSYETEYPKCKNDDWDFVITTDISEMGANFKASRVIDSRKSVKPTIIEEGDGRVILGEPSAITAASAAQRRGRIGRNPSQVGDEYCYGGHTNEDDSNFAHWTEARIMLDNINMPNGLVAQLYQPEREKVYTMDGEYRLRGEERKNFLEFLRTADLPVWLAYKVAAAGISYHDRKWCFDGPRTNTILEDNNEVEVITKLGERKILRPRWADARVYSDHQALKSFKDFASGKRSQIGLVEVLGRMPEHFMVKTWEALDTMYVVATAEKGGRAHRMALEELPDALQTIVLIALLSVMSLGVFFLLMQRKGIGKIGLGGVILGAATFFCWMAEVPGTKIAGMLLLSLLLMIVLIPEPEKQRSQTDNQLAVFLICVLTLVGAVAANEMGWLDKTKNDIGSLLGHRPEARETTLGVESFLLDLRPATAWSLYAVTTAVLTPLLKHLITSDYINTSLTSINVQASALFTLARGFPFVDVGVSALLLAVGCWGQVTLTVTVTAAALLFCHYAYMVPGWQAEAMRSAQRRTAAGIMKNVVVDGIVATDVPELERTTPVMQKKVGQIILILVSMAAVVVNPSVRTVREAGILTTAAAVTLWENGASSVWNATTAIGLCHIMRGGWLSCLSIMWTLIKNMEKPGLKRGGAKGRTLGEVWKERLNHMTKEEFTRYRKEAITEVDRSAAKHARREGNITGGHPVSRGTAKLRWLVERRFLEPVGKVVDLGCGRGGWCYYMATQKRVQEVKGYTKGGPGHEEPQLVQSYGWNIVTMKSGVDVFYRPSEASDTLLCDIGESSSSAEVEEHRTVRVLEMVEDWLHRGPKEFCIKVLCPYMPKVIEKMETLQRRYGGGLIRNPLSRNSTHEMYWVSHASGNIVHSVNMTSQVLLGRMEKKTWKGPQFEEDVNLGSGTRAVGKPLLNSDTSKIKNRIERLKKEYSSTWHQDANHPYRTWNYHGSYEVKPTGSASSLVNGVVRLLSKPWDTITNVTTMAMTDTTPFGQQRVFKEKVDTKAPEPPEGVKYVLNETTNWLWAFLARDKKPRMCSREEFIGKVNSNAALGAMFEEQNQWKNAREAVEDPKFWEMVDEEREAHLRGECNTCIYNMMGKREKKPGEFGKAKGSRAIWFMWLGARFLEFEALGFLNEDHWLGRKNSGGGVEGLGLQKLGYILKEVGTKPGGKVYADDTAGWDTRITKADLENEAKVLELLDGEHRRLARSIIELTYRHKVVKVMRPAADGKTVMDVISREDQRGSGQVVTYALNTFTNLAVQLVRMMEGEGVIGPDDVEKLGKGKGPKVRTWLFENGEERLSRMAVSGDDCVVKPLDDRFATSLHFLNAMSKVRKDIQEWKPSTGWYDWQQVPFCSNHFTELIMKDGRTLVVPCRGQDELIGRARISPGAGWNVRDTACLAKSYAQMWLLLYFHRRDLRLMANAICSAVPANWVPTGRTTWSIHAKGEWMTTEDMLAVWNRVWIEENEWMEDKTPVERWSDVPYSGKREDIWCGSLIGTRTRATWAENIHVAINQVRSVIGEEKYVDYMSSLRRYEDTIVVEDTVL
For each entry below, report its inhibition value.
Write it as a number; the unit % goes unstated.

CN([C@@H](Cc1ccc(C(=N)N)cc1)C(=O)N[C@@H](CCCCN)C(=O)N[C@@H](C(N)=O)c1ccc(O)cc1)S(=O)(=O)c1ccccc1 on Genome polyprotein (West Nile virus) (UniProt P06935) gives inhibition = 33.7

N=C(N)NCCC[C@H](NS(=O)(=O)c1ccc([N+](=O)[O-])cc1)C(=O)N[C@@H](CCCCN)C(=O)N[C@@H](C(N)=O)c1ccccc1 on Genome polyprotein (West Nile virus) (UniProt P06935) gives inhibition = 18.4

CN([C@@H](Cc1ccc(C(=N)N)cc1)C(=O)N[C@@H](CCCCN)C(=O)N[C@H](C(N)=O)c1ccc(OCc2ccccc2)cc1)S(=O)(=O)c1ccccc1 on Genome polyprotein (West Nile virus) (UniProt P06935) gives inhibition = 20.2

N=C(N)NCCC[C@H](NS(=O)(=O)c1ccccc1)C(=O)N[C@@H](CCCCN)C(=O)N[C@@H](C(N)=O)c1ccccc1 on Genome polyprotein (West Nile virus) (UniProt P06935) gives inhibition = 22.3

CN([C@@H](Cc1ccc(NC(=N)N)cc1)C(=O)N[C@@H](CCCCN)C(=O)N[C@@H](C(N)=O)c1ccccc1)S(=O)(=O)c1ccccc1 on Genome polyprotein (West Nile virus) (UniProt P06935) gives inhibition = 14.9

CN([C@@H](Cc1ccc(C(=N)N)cc1)C(=O)N[C@@H](CCCCN)C(=O)N[C@@H](C(N)=O)c1ccccc1)S(=O)(=O)c1ccccc1 on Genome polyprotein (West Nile virus) (UniProt P06935) gives inhibition = 48.7

CN([C@@H](Cc1cccc(NC(=N)N)c1)C(=O)N[C@@H](CCCCN)C(=O)N[C@@H](C(N)=O)c1ccccc1)S(=O)(=O)c1ccccc1 on Genome polyprotein (West Nile virus) (UniProt P06935) gives inhibition = 10.1

CN([C@@H](Cc1ccc(C(=N)N)cc1)C(=O)N[C@@H](CCCCN)C(=O)N[C@@H](C(N)=O)c1ccc(OCc2ccccc2)cc1)S(=O)(=O)c1ccccc1 on Genome polyprotein (West Nile virus) (UniProt P06935) gives inhibition = 68.9

Cc1ccc(S(=O)(=O)N[C@@H](CCCNC(=N)N)C(=O)N[C@@H](CCCCN)C(=O)N[C@@H](C(N)=O)c2ccccc2)cc1 on Genome polyprotein (West Nile virus) (UniProt P06935) gives inhibition = 17.7

CN([C@@H](Cc1ccc(C(=N)N)cc1)C(=O)N[C@@H](CCCCN)C(=O)N[C@@H](C(N)=O)c1ccc(OCc2ccc(Cl)c(Cl)c2)cc1)S(=O)(=O)c1ccccc1 on Genome polyprotein (West Nile virus) (UniProt P06935) gives inhibition = 84.8

N=C(N)NCCC[C@H](NS(=O)(=O)c1ccc(Cl)cc1)C(=O)N[C@@H](CCCCN)C(=O)N[C@@H](C(N)=O)c1ccccc1 on Genome polyprotein (West Nile virus) (UniProt P06935) gives inhibition = 15.5

CN([C@@H](Cc1ccc(C(=N)N)cc1)C(=O)N[C@@H](CCCCN)C(=O)N[C@@H](C(N)=O)c1ccc(OCc2ccc(C(F)(F)F)cc2)cc1)S(=O)(=O)c1ccccc1 on Genome polyprotein (West Nile virus) (UniProt P06935) gives inhibition = 80.4

###

molecular target: Genome polyprotein (dengue virus type 2, UniProt P29990)
pIC50: −log10 of the molar value.
Outcome label depends on pIC50 relative to 6: at/above gives Met, below gives Not met.

Q) Answer whether pIC50 of CN([C@@H](Cc1ccc(C(=N)N)cc1)C(=O)N[C@@H](CCCCN)C(=O)N[C@@H](C(N)=O)c1ccc(OCc2ccc(C(F)(F)F)cc2)cc1)S(=O)(=O)c1ccccc1 is greater than or equal to 6.
A) Met

Q) Answer whether pIC50 of Cc1ccc(S(=O)(=O)N(C)[C@@H](Cc2ccc(NC(=N)N)cc2)C(=O)N[C@@H](CCCCN)C(=O)N[C@@H](C(N)=O)c2ccccc2)cc1 is greater than or equal to 6.
A) Not met

Q) Answer whether pIC50 of CN([C@@H](CCCNC(=N)N)C(=O)N[C@@H](CCCCN)C(=O)N[C@H](C(N)=O)c1ccccc1)S(=O)(=O)c1ccccc1 is greater than or equal to 6.
A) Not met

Q) Answer whether pIC50 of CN([C@@H](Cc1ccc(C(=N)N)cc1)C(=O)N[C@@H](CCCCN)C(=O)N[C@@H](C(N)=O)c1ccc(OCc2ccc(Cl)c(Cl)c2)cc1)S(=O)(=O)c1ccccc1 is greater than or equal to 6.
A) Met

Q) Answer whether pIC50 of CN([C@@H](Cc1ccc(NC(=N)N)cc1)C(=O)N[C@@H](CCCCN)C(=O)N[C@@H](C(N)=O)c1ccccc1)S(=O)(=O)c1ccccc1 is greater than or equal to 6.
A) Not met

Q) Answer whether pIC50 of CN([C@@H](CCCNC(=N)N)C(=O)N[C@@H](CCCCN)C(=O)N[C@@H](C(N)=O)c1ccccc1)S(=O)(=O)c1ccccc1 is greater than or equal to 6.
A) Not met

Q) Answer whether pIC50 of CN([C@@H](Cc1ccc(C(=N)N)cc1)C(=O)N[C@@H](CCCCN)C(=O)N[C@H](C(N)=O)c1ccc(OCc2ccccc2)cc1)S(=O)(=O)c1ccccc1 is greater than or equal to 6.
A) Met

Q) Answer whether pIC50 of CN([C@@H](Cc1ccc(C(=N)N)cc1)C(=O)N[C@@H](CCCCN)C(=O)N[C@@H](C(N)=O)c1ccc(OCc2ccccc2)cc1)S(=O)(=O)c1ccccc1 is greater than or equal to 6.
A) Met

Q) Answer whether pIC50 of CC[C@H](NC(=O)[C@H](Cc1cccc(NC(=N)N)c1)N(C)S(=O)(=O)c1ccc(C)cc1)C(=O)N[C@@H](C(N)=O)c1ccccc1 is greater than or equal to 6.
A) Not met

Q) Answer whether pIC50 of CN([C@@H](Cc1ccc(C(=N)N)cc1)C(=O)N[C@@H](CCCCN)C(=O)N[C@@H](C(N)=O)c1ccc(O)cc1)S(=O)(=O)c1ccccc1 is greater than or equal to 6.
A) Met

Q) Answer whether pIC50 of CN([C@@H](Cc1cccc(NC(=N)N)c1)C(=O)N[C@@H](CCCCN)C(=O)N[C@@H](C(N)=O)c1ccccc1)S(=O)(=O)c1ccccc1 is greater than or equal to 6.
A) Not met

Q) Answer whether pIC50 of CN([C@@H](CCCNC(=N)N)C(=O)N[C@@H](CCCCN)C(=O)N[C@@H](C(N)=O)c1ccccc1)S(=O)(=O)c1ccc(Cl)cc1 is greater than or equal to 6.
A) Not met

Q) Answer whether pIC50 of CN([C@@H](Cc1ccc(C(=N)N)cc1)C(=O)N[C@@H](CCCCN)C(=O)N[C@@H](C(N)=O)c1ccccc1)S(=O)(=O)c1ccccc1 is greater than or equal to 6.
A) Met

Q) Answer whether pIC50 of Cc1ccc(S(=O)(=O)N(C)[C@@H](CCCNC(=N)N)C(=O)N[C@@H](CCCCN)C(=O)N[C@@H](C(N)=O)c2ccccc2)cc1 is greater than or equal to 6.
A) Not met
